Biological target: ROR gamma ligand binding domain (Homo sapiens (Human), UniProt P51449)
Sequence (P51449 269-508): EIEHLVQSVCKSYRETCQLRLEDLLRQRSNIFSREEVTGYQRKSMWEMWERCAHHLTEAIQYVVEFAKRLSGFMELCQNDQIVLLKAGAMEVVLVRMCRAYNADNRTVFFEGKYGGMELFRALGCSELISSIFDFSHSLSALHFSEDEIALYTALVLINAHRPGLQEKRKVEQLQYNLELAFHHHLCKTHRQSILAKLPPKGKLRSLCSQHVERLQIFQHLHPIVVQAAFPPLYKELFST
Assay: ROR gamma luciferase reporter assay (GAL4-ROR gamma LBD, HEK293 cells)
Assay type: cell-based
Settings: 48 hours treatment, read-out: RORγ luciferase Reporter assay: IC50 (nM) (in range)
Method: The Ligand Binding Domain (LBD) of ROR gamma was cloned into pFN26A (BIND) hRluc-neo Flexi vector (Promega) which expresses a fusion protein comprised of a DNA binding domain of the yeast GAL4 gene, a linker segment and ROR gamma ligand binding domain. […] The assay was terminated using the Bright-Glo Luciferase assay system from Promega and the Luminescence was measured using a luminescence reader. The luminescence values were used to calculate the potency of the compounds.
MEASURED_METRIC: IC50

Answered cases to consult:
- COMPOUND: "CCS(=O)(=O)c1ccc(CC(=O)Nc2cc3c(cn2)C(=O)C(C)(c2cc(C)nc(C)n2)CC3)cc1 (stereo not shown)"
  IC50: "100 to 500 nM"
- COMPOUND: "Cc1cn2ccnc(C3(C)CCc4nc(NC(=O)Cc5ccc(S(C)(=O)=O)cc5)ccc4C3=O)c2n1 (stereo not shown)"
  IC50: "> 500 nM"
- COMPOUND: "CCS(=O)(=O)c1ccc(CC(=O)Nc2ccc3c(n2)CCC(C)(c2nccn4cc(C)nc24)C3=O)cc1 (stereo not shown) [Compound 9]"
  IC50: "100 to 500 nM"
- COMPOUND: "CCS(=O)(=O)c1ccc(CC(=O)Nc2ccc3c(n2)CCC(C)(c2ncc(C)n4ccnc24)C3=O)cc1 (stereo not shown)"
  IC50: "100 to 500 nM"
- COMPOUND: "CCS(=O)(=O)c1ccc(CC(=O)Nc2cc(C)c3c(n2)CCC(C)(c2ccc(OC)nn2)C3=O)cc1 (stereo not shown) [Compound 31]"
  IC50: "< 100 nM"
- COMPOUND: "CCS(=O)(=O)c1ccc(CC(=O)Nc2ccc3c(n2)CCC(C)(c2cc(C(F)(F)F)nc(C)n2)C3=O)cc1 (stereo not shown)"
  IC50: "> 500 nM"

Pending compound:
Recorded IC50 for CCS(=O)(=O)c1ccc(CC(=O)Nc2ccc3c(n2)CCC(C)(c2ccc(C)s2)C3=O)cc1 (stereo not shown) , please?
< 100 nM

---

biological target: RORγ LBD (Homo sapiens (Human), UniProt P51449); assay: ROR gamma radio-ligand binding assay (3H 25-Hydroxycholesterol competitive displacement, dextran charcoal method); settings: 10 μM compound
Sequence (P51449 268-518): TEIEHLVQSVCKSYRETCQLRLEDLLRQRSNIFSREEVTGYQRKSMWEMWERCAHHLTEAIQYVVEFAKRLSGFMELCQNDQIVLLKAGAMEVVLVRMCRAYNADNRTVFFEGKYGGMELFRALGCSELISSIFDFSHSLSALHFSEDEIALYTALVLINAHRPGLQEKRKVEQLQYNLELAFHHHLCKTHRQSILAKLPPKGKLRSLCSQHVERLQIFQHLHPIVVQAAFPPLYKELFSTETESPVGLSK
MEASURED_METRIC: inhibition at 10 µM (%)
Numeric answer only, unit % assumed.

Recorded inhibition at 10 µM for CCS(=O)(=O)c1ccc(CC(=O)Nc2ccc3c(n2)CC(C)C(c2ncccc2O)C3=O)cc1 (stereo not drawn) , please?
100

Recorded inhibition at 10 µM for Cc1cc(NC(=O)Cc2ccc(S(C)(=O)=O)cc2)nc2c1C(=O)C(C)(c1ncccc1O)CC2 (stereo not drawn) , please?
79

Recorded inhibition at 10 µM for CCS(=O)(=O)c1ccc(CC(=O)Nc2cc(C)c3c(n2)CCC(C)(c2ccc(O)cn2)C3=O)cc1 (stereo not drawn) , please?
90

---

target: ROR gamma ligand binding domain (Homo sapiens (Human), UniProt P51449); experiment: ROR gamma luciferase reporter assay (GAL4-ROR gamma LBD, HEK293 cells); format: cell-based; settings: 48 hours treatment, read-out: RORγ luciferase Reporter assay: IC50 (nM) (in range)
# IC50 annotations

Answered cases to consult:
- MOLECULE: "CCS(=O)(=O)c1ccc(CC(=O)Nc2ccc3c(n2)CCC(C)(c2nccn4cc(C(F)(F)F)nc24)C3=O)cc1 (stereo not drawn)"
  SYSTEM_NAME: "ROR gamma ligand binding domain (Homo sapiens (Human), UniProt P51449)"
  VALUE_MEASURED: "< 100 nM"
- MOLECULE: "CCS(=O)(=O)c1ccc(CC(=O)Nc2ccc3c(n2)CCC(C)(c2nccn4cccc24)C3=O)cc1 (stereo not drawn)"
  SYSTEM_NAME: "ROR gamma ligand binding domain (Homo sapiens (Human), UniProt P51449)"
  VALUE_MEASURED: "< 100 nM"
- MOLECULE: "CCS(=O)(=O)c1ccc(CC(=O)Nc2ccc3c(n2)CCC(C)(c2ccc(O)nc2)C3=O)cc1 (stereo not drawn)"
  SYSTEM_NAME: "ROR gamma ligand binding domain (Homo sapiens (Human), UniProt P51449)"
  VALUE_MEASURED: "> 500 nM"
- MOLECULE: "CCS(=O)(=O)c1ccc(CNC(=O)c2ccc3c(n2)CCC(C)(c2cc(C)nc(C)n2)C3=O)cc1 (single isomer, unassigned) [compound 125]"
  SYSTEM_NAME: "ROR gamma ligand binding domain (Homo sapiens (Human), UniProt P51449)"
  VALUE_MEASURED: "< 100 nM"

Recorded IC50 for CCS(=O)(=O)c1ccc(CC(=O)Nc2cc(C)c3c(n2)CCC(C)(c2ccc(O)cn2)C3=O)cc1 (stereo not drawn) , please?
> 500 nM

Recorded IC50 for CCS(=O)(=O)c1ccc(CC(=O)Nc2ccc3c(n2)CCC(C)(c2nccn4c(C)cnc24)C3=O)cc1 (stereo not drawn) [Compound 49] , please?
100 to 500 nM

---

target: UniProt P51449; experiment: ROR gamma radio-ligand binding assay (3H 25-Hydroxycholesterol competitive displacement, dextran charcoal method); conditions: 1 μM compound
// No strictly below 70% in RORγ ligand binding assay: % inhibition @1 μM; Yes otherwise

Here's what some known entries look like.
- COMPOUND: "CCS(=O)(=O)c1ccc(CC(=O)Nc2ccc3c(n2)CCC(C)(c2nccn4cc(C)nc24)C3=O)cc1 (single isomer, unassigned) [Compound-105]"
  CLASS: "Yes"
- COMPOUND: "CCS(=O)(=O)c1ccc(CC(=O)Nc2ccc3c(n2)CCC(C)(c2ncc(OC)cn2)C3=O)cc1 (single isomer, unassigned) [compound 112]"
  CLASS: "Yes"

Could you verify whether the entry CCS(=O)(=O)c1ccc(CC(=O)Nc2cc(C)c3c(n2)CCC(C)(c2cc(C)nc(C)n2)C3=O)cc1 (single isomer, unassigned) shows RORγ ligand binding assay: % inhibition @1 μM of no less than 70%?
Yes

Could you verify whether the entry CCS(=O)(=O)c1ccc(CC(=O)Nc2ccc3c(n2)CCC(C)(c2cc(C)nc(C)n2)C3=O)cc1 (single isomer, unassigned) [compound 104] shows RORγ ligand binding assay: % inhibition @1 μM of no less than 70%?
Yes

Could you verify whether the entry CCS(=O)(=O)c1ccc(CC(=O)Nc2ccc3c(n2)CCC(C)(c2cc(C)nc(C)n2)C3=O)cc1 (single isomer, unassigned) [compound 103] shows RORγ ligand binding assay: % inhibition @1 μM of no less than 70%?
No

Could you verify whether the entry CCS(=O)(=O)c1ccc(CC(=O)Nc2cc(C)c3c(n2)CCC(C)(c2ccc(OC)nn2)C3=O)cc1 (single isomer, unassigned) shows RORγ ligand binding assay: % inhibition @1 μM of no less than 70%?
Yes

Could you verify whether the entry CCS(=O)(=O)c1ccc(CC(=O)Nc2ccc3c(n2)CCC(C)(c2ncc(OC)cn2)C3=O)cc1 (single isomer, unassigned) [compound 111] shows RORγ ligand binding assay: % inhibition @1 μM of no less than 70%?
No

---

target: RORγ LBD (Homo sapiens (Human)); test: ROR gamma radio-ligand binding assay (3H 25-Hydroxycholesterol competitive displacement, dextran charcoal method); conditions: 10 μM compound
# RORγ ligand binding assay: % inhibition @ 10 μM annotations

- COMPOUND: "CCS(=O)(=O)c1ccc(CC(=O)Nc2ccc3c(n2)CCC(C)(c2nccn4cc(C)nc24)C3=O)cc1 (single isomer, unassigned) [Compound-105]"
  VALUE_MEASURED: "97%"
- COMPOUND: "CCS(=O)(=O)c1ccc(CC(=O)Nc2ccc3c(n2)CCC(C)(c2ncc(OC)cn2)C3=O)cc1 (single isomer, unassigned) [compound 111]"
  VALUE_MEASURED: "19%"
- COMPOUND: "CCS(=O)(=O)c1ccc(CC(=O)Nc2ccc3c(n2)CCC(C)(c2ncc(OC)cn2)C3=O)cc1 (single isomer, unassigned) [compound 112]"
  VALUE_MEASURED: "73%"
- COMPOUND: "CCS(=O)(=O)c1ccc(CC(=O)Nc2ccc3c(n2)CCC(C)(c2nccn4cc(C)nc24)C3=O)cc1 (single isomer, unassigned) [compound 106]"
  VALUE_MEASURED: "1%"
- COMPOUND: "CCS(=O)(=O)c1ccc(CC(=O)Nc2cc(C)c3c(n2)CCC(C)(c2cc(C)nc(C)n2)C3=O)cc1 (single isomer, unassigned) [compound 107]"
  VALUE_MEASURED: "90%"

Recorded RORγ ligand binding assay: % inhibition @ 10 μM for CCS(=O)(=O)c1ccc(CC(=O)Nc2cc(C)c3c(n2)CCC(C)(c2ccc(OC)nn2)C3=O)cc1 (single isomer, unassigned) [compound 109] , please?
36%

Recorded RORγ ligand binding assay: % inhibition @ 10 μM for CCS(=O)(=O)c1ccc(CC(=O)Nc2cc(C)c3c(n2)CCC(C)(c2ccc(OC)nn2)C3=O)cc1 (single isomer, unassigned) [compound 110] , please?
81%
